Test system: SJSA-1 (Osteosarcoma);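 also: after 72 h of two-drug dosing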
PROCEDURE_DETAILS: Bliss excess, mean over the matrix (fraction); higher = more synergy
Classification field: met = Bliss excess at or over -0.03; not met = Bliss excess under -0.03.

Reference set, count: 4
INSERT INTO assay_data (compound, answer_label) VALUES
  ('CC1(C)CCC(CN2CCN(c3ccc(C(=O)NS(=O)(=O)c4ccc(NCC5CCOCC5)c([N+](=O)[O-])c4)c(Oc4cnc5[nH]ccc5c4)c3)CC2)=C(c2ccc(Cl)cc2)C1 [Venetoclax] + CCN(CCO)CCCOc1ccc2c(Nc3cc(CC(=O)Nc4cccc(F)c4)[nH]n3)ncnc2c1 [AZD2811] (first compound max 1 µM, 7x7, partner max 1 µM)', 'met'),
  ('COc1cccc(OCCCN)c1-c1cc(Nc2cnc(C#N)cn2)n[nH]1 [Prexasertib] + CN(C)CCCOc1ccc(-c2ccc3ncc4c(c3c2)n(C2CCOCC2)c(=O)n4C)cn1 [AZD0156] (first compound max 1 µM, 7x7, partner max 1 µM)', 'met'),
  ('COc1cccc2c1C(=O)c1c(O)c3c(c(O)c1C2=O)C[C@@](O)(C(=O)CO)C[C@@H]3O[C@H]1C[C@H](N)[C@H](O)[C@H](C)O1 [Doxorubicin] + Cc1cc2ncnn2cc1Nc1ncc2c(n1)n(C1CCOCC1)c(=O)n2C [AZD7648] (first compound max 1 µM, 7x7, partner max 10 µM)', 'met'),
  ('C[C@@H](Oc1cc(-c2cnn(C3CCNCC3)c2)cnc1N)c1c(Cl)ccc(F)c1Cl [Crizotinib] + CC1=C(C(=CC=C1)Cl)NC(=O)C2=CN=C(S2)NC3=CC(=NC(=N3)C)N4CCN(CC4)CCO [Dasatinib] (first compound max 10 µM, 7x7, partner max 2 µM)', 'met');

Query :: Is Bliss excess for O=C(c1cc(Cc2n[nH]c(=O)c3ccccc23)ccc1F)N1CCN(C(=O)C2CC2)CC1 [Olaparib] + CC1(C)CCC(CN2CCN(c3ccc(C(=O)NS(=O)(=O)c4ccc(NCC5CCOCC5)c([N+](=O)[O-])c4)c(Oc4cnc5[nH]ccc5c4)c3)CC2)=C(c2ccc(Cl)cc2)C1 [Venetoclax] (first compound max 10 µM, 7x7, partner max 1 µM) at or above -0.03?
Result :: not met

Query :: Is Bliss excess for CS(=O)(=O)CCNCc1ccc(-c2ccc3ncnc(Nc4ccc(OCc5cccc(F)c5)c(Cl)c4)c3c2)o1 [Lapatinib] + Cn1cnc2c(F)c(Nc3ccc(Br)cc3Cl)c(C(=O)NOCCO)cc21 [Selumetinib] (first compound max 10 µM, 7x7, partner max 10 µM) at or above -0.03?
Result :: not met

Query :: Is Bliss excess for CCc1c2c(nc3ccc(O)cc13)-c1cc3c(c(=O)n1C2)COC(=O)[C@]3(O)CC [SN-38] + CN(C)CCCOc1ccc(-c2ccc3ncc4c(c3c2)n(C2CCOCC2)c(=O)n4C)cn1 [AZD0156] (first compound max 0.3 µM, 7x7, partner max 1 µM) at or above -0.03?
Result :: not met

Query :: Is Bliss excess for O=C(c1cc(Cc2n[nH]c(=O)c3ccccc23)ccc1F)N1CCN(C(=O)C2CC2)CC1 [Olaparib] + Cc1c2c(nn1C)CSCc1cc(n(C)n1)CSc1cc(c3ccccc3c1)OCCCc1c(C(=O)O)n(C)c3c-2c(Cl)ccc13 [AZD5991] (first compound max 10 µM, 7x7, partner max 1 µM) at or above -0.03?
Result :: not met

Query :: Is Bliss excess for COc1nnc2ccc(N3CCC(c4ccc(OCCN5CCN(C)C(=O)[C@H]5C)cc4)CC3)nn12 [AZD5153] + C[C@@H]1COCCN1C2=NC(=NC(=C2)C3(CC3)[S@](=N)(=O)C)C4=C5C=CNC5=NC=C4 [AZD6738] (first compound max 1 µM, 7x7, partner max 10 µM) at or above -0.03?
Result :: not met

Query :: Is Bliss excess for C=CCn1c(=O)c2cnc(Nc3ccc(N4CCN(C)CC4)cc3)nc2n1-c1cccc(C(C)(C)O)n1 [AZD1775] + C[C@@H]1COCCN1C2=NC(=NC(=C2)C3(CC3)[S@](=N)(=O)C)C4=C5C=CNC5=NC=C4 [AZD6738] (first compound max 1 µM, partner max 10 µM) at or above -0.03?
Result :: met

Query :: Is Bliss excess for C[C@@H](Nc1cc(F)cc(F)c1)c1cc(C(=O)N(C)C)cc2c(=O)cc(N3CCOCC3)oc12 [AZD8186] + C1CN(CCC1(C(=O)N[C@@H](CCO)C2=CC=C(C=C2)Cl)N)C3=NC=NC4=C3C=CN4 [AZD5363] (first compound max 10 µM, 7x7, partner max 10 µM) at or above -0.03?
Result :: met

Query :: Is Bliss excess for CN(CCO)CC[C@H](CSc1ccccc1)Nc1ccc(S(=O)(=O)NC(=O)c2ccc(N3CCC([C@@H](O)c4ccccc4-c4ccc(Cl)cc4)CC3)cc2)cc1S(=O)(=O)C(F)(F)F [AZD4320] + C[C@@H]1COCCN1C2=NC(=NC(=C2)C3(CC3)[S@](=N)(=O)C)C4=C5C=CNC5=NC=C4 [AZD6738] (first compound max 1 µM, 7x7, partner max 10 µM) at or above -0.03?
Result :: not met

Query :: Is Bliss excess for CN(C)CCCOc1ccc(-c2ccc3ncc4c(c3c2)n(C2CCOCC2)c(=O)n4C)cn1 [AZD0156] + CCN(CCO)CCCOc1ccc2c(Nc3cc(CC(=O)Nc4cccc(F)c4)[nH]n3)ncnc2c1 [AZD2811] (first compound max 1 µM, 7x7, partner max 1 µM) at or above -0.03?
Result :: not met

The measurements presented in this section are drawn from the supplement of paper PMC11061612.
